- Test system: 171881-019-R-J1-PDC tumor spheroid viability;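 also: spheroids exposed to compound for 7 days before viability read; 100% = DMSO vehicle-treated spheroids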
- ASSAY SUMMARY: Anticancer human tumor 171881-019-R-J1-PDC patient-derived invasive breast carcinoma cell line growth inhibition [PI3K]
- CONDITION NOTES: second compound 0.1 µM; first compound 10 µM; active compounds read low; spheroids with HUVEC and MSC
Here the recorded viability, T/C is given for each entry.
Enter your answer as a number in %; do not include the unit.

Examples with their reported viability, T/C follow.
COMPOUND | viability, T/C [%]
CC(Cn1ccc(-c2ccc(C#N)c(Cl)c2)n1)NC(=O)c1cc(C(C)O)[nH]n1 (stereo not given) + CC(Nc1ncnc2nc[nH]c12)c1cc2cccc(Cl)c2c(=O)n1-c1ccccc1 | 62.1
CC(Cn1ccc(-c2ccc(C#N)c(Cl)c2)n1)NC(=O)c1cc(C(C)O)[nH]n1 (stereo not given) + COc1c(OCCCN2CCOCC2)ccc2c3n(c(=NC(=O)c4cnc(N)nc4)nc12)CCN3 | 5.04
C#Cc1c(F)ccc2cc(O)cc(-c3ncc4c(N5CC6CCC(C5)N6)nc(OCC56CCCN5CC(F)C6)nc4c3F)c12 (stereo not given) + Cc1nc(NC(=O)N2CCCC2C(N)=O)sc1-c1ccnc(C(C)(C)C(F)(F)F)c1 | 16.4
CC1(C)CCC(Nc2ncc(C(F)(F)F)c(-c3c[nH]c4c(P(C)(C)=O)c(C#N)ccc34)n2)CN1 (stereo not given) + Cc1nc(NC(=O)N2CCCC2C(N)=O)sc1-c1ccnc(C(C)(C)C(F)(F)F)c1 | 16.3

# ---- query compound ----
Memo: CC1(C)CCC(Nc2ncc(C(F)(F)F)c(-c3c[nH]c4c(P(C)(C)=O)c(C#N)ccc34)n2)CN1 (stereo not given) + CC(Nc1ccc2c(c1)OCCn1cc(N3C(=O)OCC3C(F)F)nc1-2)C(N)=O , reported viability, T/C: 2.6
